Target: T1, PDZD2_2, O15018
T1 sequence (O15018 329-429, limits assumed, looked up): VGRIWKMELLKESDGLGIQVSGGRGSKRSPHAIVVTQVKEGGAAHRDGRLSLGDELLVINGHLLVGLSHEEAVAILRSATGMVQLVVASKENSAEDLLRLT
Assay: holdup assay
Design: key: below the threshold = too weak to quantify, mostly under pKd 3.1 to 4
Conditions: plain residues with an end cap or a label only (N-terminal biotin on a linker: ado-ado)
// values below are reported pKd
value type: pKd

# binder, numeric result
measured = [
    ("LPHGHSTTRV [NLGN4X, Q8N0W4]", 3.53),
    ("SKENVQETQI [LRRC4B, Q9NT99]", 3.97),
    ("YYKRPVQEWV [MMP24, Q9Y5R2]", 5.65),
]
